Reported GI50 values, MV-4-11 cells.
property measured: GI50 (nM)

Field: example entries. Status: answers known.
compound	GI50 [nM]
Cc1nn(C2CN(C)C2)c2c1C(c1ccc(Cl)cc1)N(c1cc(C)c(=O)n(C)c1)C2=O (centres unmarked) [Example 140]	106
CCc1nn(CCOCC(F)(F)F)c2c1C(c1ccc(Cl)cc1)N(c1cc(OC)c3nnc(C)n3c1)C2=O (centres unmarked) [Example 108]	267
CCc1nn(C2CC2)c2c1C(c1ccc(Cl)cc1)N(c1cc(OC)c3nnc(C)n3c1)C2=O (centres unmarked) [Example 84]	58.3
Cn1cc(N2C(=O)c3c(c(C(F)(F)F)nn3C3CC3)C2c2ccc(Cl)cc2)cc(Cl)c1=O (centres unmarked) [Example 44]	217
Cc1nn(-c2ccnn2C)c2c1[C@@H](c1ccc(Cl)cc1)N(c1cc(C)c(=O)n(C)c1)C2=O [Example 120]	55.7

A: CCn1nc(C)c2c1C(=O)N(c1cc(C)c3nnc(C)n3c1)C2c1ccc(F)cc1F (centres unmarked) [Example 181]
B: Cc1[nH]nc2c1C(c1ccc(Cl)cc1F)N(c1cc(C)c(=O)n(C)c1)C2=O (centres unmarked) [Example 196]
Identify the item whose GI50 is the smaller number: A or B Select an item and report its label.
A
